Target: Alkaline phosphatase, germ cell type (Homo sapiens) (UniProt P10696)
Sequence (P10696 whole entry, looked up): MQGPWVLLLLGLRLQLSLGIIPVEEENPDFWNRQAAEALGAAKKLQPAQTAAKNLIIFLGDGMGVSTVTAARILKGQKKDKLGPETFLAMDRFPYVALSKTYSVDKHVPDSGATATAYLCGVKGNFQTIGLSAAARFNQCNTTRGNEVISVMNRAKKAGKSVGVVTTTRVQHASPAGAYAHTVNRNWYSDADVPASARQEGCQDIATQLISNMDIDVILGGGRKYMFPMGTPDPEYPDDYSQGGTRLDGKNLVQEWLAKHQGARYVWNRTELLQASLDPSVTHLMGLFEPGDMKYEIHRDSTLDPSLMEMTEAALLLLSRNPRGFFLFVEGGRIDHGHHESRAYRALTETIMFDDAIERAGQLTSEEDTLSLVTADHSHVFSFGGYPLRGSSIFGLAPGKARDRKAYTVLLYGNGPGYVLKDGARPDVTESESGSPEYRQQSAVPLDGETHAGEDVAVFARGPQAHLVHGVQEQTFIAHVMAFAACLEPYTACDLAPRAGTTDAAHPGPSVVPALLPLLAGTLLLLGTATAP
Test: inhibitors of germ cell alkaline phosphatase – biochemical, human placental-like ALPPL2 isozyme, selectivity assay for mouse IAP inhibitor project, SAR follow-up (AID 493136)
Conditions: purified placental-like alkaline phosphatase, phosphatase activity
Active and inactive are the calls of the source. No rule for the calls is given here.
Classes used: t for active, f for inactive

1) S=C(NCCC(c1ccccc1)c1ccccc1)Nc1ccc(Cl)cc1Cl :: f
2) NS(=O)(=O)c1ccc(NC(=S)NCCC(c2ccccc2)c2ccccc2)cc1 :: f
3) Cc1ccc(NC(=O)CCNS(=O)(=O)c2ccc3[nH]c(=O)oc3c2)cc1C :: f
4) COc1ccc(C(=O)CSc2n[nH]c(-c3ccccc3)n2)cc1OC :: f
5) CC1(c2ccccc2)CC(C)(C)N(C(=S)Nc2ccccc2)c2ccccc21 (configuration not stated) :: f
6) COc1ccc(NC(=S)NCCC(c2ccccc2)c2ccccc2)cc1 :: f
7) Cn1cc(CN2CCC(C(=O)Nc3cccc(-c4cccc(F)c4)c3)CC2)cn1 :: f
8) O=C(Nc1cccc(-c2cccc(Cl)c2)c1)C1CCN(C2CCC2)CC1 :: f
9) CCOC(=O)c1ccc(NC(=S)NCCC(c2ccccc2)c2ccccc2)cc1 :: f
10) O=C(Nc1cccc(-c2cccc(Cl)c2)c1)C1CCN(Cc2ccc(CO)o2)CC1 :: f
11) Cc1ccc(NC(=S)NCCC(c2ccccc2)c2ccccc2)cc1 :: f
12) COc1ccc(Cl)cc1NC(=S)NCCC(c1ccccc1)c1ccccc1 :: f
13) CCCn1ncc(CN2CCC(C(=O)Nc3cccc(-c4cccc(F)c4)c3)CC2)c1C :: f
14) COc1ccc(Cl)cc1Nc1nc(-c2ccc(O)c(O)c2)cs1 :: f
15) CCN1CCN(S(=O)(=O)c2ccc3[nH]c(=O)oc3c2)CC1 :: f
16) Fc1ccc(NC(=S)NCCC(c2ccccc2)c2ccccc2)cc1Cl :: f
17) CCn1nc(C)c(CN2CCC(C(=O)Nc3cccc(-c4cccc(Cl)c4)c3)CC2)c1C :: f
18) CCn1c(SCC(=O)c2ccc(O)c(O)c2)nnc1-c1ccccc1OC :: t
19) COc1cccc(NC(=S)NCCC(c2ccccc2)c2ccccc2)c1 :: f
20) COCc1ccc(CN2CCC(C(=O)Nc3cccc(-c4cccc(Cl)c4)c3)CC2)o1 :: f
21) O=C(CN1C(=O)/C(=C/c2ccco2)SC1=S)Nc1cccc(C(=O)O)c1 :: f
22) Cc1nn(C(C)C)c(C)c1CN1CCC(C(=O)Nc2cccc(-c3cccc(F)c3)c2)CC1 :: f
23) Cc1cccc(NC(=S)NCCC(c2ccccc2)c2ccccc2)c1C :: f
24) Cc1cc(=O)oc2cc(NC(=S)NCCC(c3ccccc3)c3ccccc3)ccc12 :: f
25) Cc1cc(NC(=O)CCNS(=O)(=O)c2ccc3[nH]c(=O)oc3c2)ccc1Br :: f
26) COc1cccc(-c2cccc(NC(=O)C3CCN(Cc4ccc(C)o4)CC3)c2)c1 :: f
27) CC(C)c1ccccc1NC(=S)NCCC(c1ccccc1)c1ccccc1 :: f
28) Cc1c(Cl)cccc1NC(=S)NCCC(c1ccccc1)c1ccccc1 :: f
29) COc1cccc(-c2cccc(NC(=O)C3CCN(Cc4ccc(CO)o4)CC3)c2)c1 :: f
30) CCn1ncc(CN2CCC(C(=O)Nc3cccc(-c4cccc(F)c4)c3)CC2)c1C :: f
31) Cc1ccc(C)c(NC(=S)NCCC(c2ccccc2)c2ccccc2)c1 :: f
32) C=CCn1cc(CN2CCC(C(=O)Nc3cccc(-c4cccc(F)c4)c3)CC2)c(C)n1 :: f
33) Oc1ccc(-c2csc(Nc3cccc4ccccc34)n2)cc1O :: f
34) CC(C)n1cc(CN2CCC(C(=O)Nc3cccc(-c4cccc(Cl)c4)c3)CC2)cn1 :: f
35) Cc1cc(Cl)ccc1NC(=S)NCCC(c1ccccc1)c1ccccc1 :: f
36) COc1cc(NC(=S)NCCC(c2ccccc2)c2ccccc2)cc(OC)c1 :: f
37) Fc1ccccc1NC(=S)NCCC(c1ccccc1)c1ccccc1 :: f
38) C=CCn1cc(CN2CCC(C(=O)Nc3cccc(-c4cccc(Cl)c4)c3)CC2)c(C)n1 :: f
39) COC(=O)c1cc(NC(=S)NCCC(c2ccccc2)c2ccccc2)cc(C(=O)OC)c1 :: f
40) Cn1cc(CN2CCC(C(=O)Nc3cccc(-c4cccc(Cl)c4)c3)CC2)cn1 :: f
41) CC(C)n1cc(CN2CCC(C(=O)Nc3cccc(-c4cccc(F)c4)c3)CC2)cn1 :: f
42) O=C(CN1C(=O)/C(=C/c2ccco2)SC1=S)Nc1ccc(C(=O)O)cc1 :: f

Data origin, for the record: PubChem BioAssay AID493136
